System: HeLa cells
Experiment: In vitro anti-proliferative SRB assay, HeLa
Format: cell-based, human
Details: selectivity index, L02 vs HeLa
Listing of recorded SI (CC50 L02/IC50 Hela) by entry.

For COc1ccc(C(=O)/C=C/c2cc(OC)cc(OC)c2)cc1 , what is its reported SI (CC50 L02/IC50 Hela)?
0.7

Shift focus to the following entry.
For COc1cccc(OC)c1/C=C/C(=O)c1ccc(C)cc1 , what is its reported SI (CC50 L02/IC50 Hela)?
3.2

----------
Test system: A549 cells
Assay: In vitro anti-proliferative SRB assay, A549
Assay type: cell-based, human
Details: selectivity index, HMLE vs A549
Please assign false whenever SI (CC50 HMLE/IC50 A549) is at or above 0.6, and true whenever it is below.

Use the examples below as a reference point.
Dear colleague, could you confirm whether SI (CC50 HMLE/IC50 A549) of COc1cccc(OC)c1/C=C/C(=O)c1ccccc1O [b24] falls below 0.6? Thanks.
false

Here's an entry: COc1cccc(OC)c1/C=C/C(=O)c1ccc(C)c(C)c1 [b5] . Is its SI (CC50 HMLE/IC50 A549) below 0.6?
true

State whether 0.6 exceeds SI (CC50 HMLE/IC50 A549) recorded for COc1ccc(C(=O)/C=C/c2c(OC)cccc2OC)cc1OC [b19] .
false

Determine whether this molecule shows SI (CC50 HMLE/IC50 A549) lower than 0.6 (ties excluded): COc1cccc(OC)c1/C=C/C(=O)c1cccc(Br)c1 [b36]
true

Hello, I'm reviewing records and need to know if SI (CC50 HMLE/IC50 A549) of COc1cccc(OC)c1/C=C/C(=O)c1ccccc1F [b31] is below 0.6. Could you check?
false

Further cases:
Problem: For the molecule COc1cccc(OC)c1/C=C/C(=O)c1ccc(O)cc1 [b26] , is SI (CC50 HMLE/IC50 A549) under 0.6?
true

----------
Recorded melting point values for a group of molecules are listed next.

Examples from the recorded data:
Item under review: COc1ccc(C(=O)/C=C/c2cc(OC)c(OC)cc2OC)cc1 . Reported melting point?
122.1 to 123.7 °C

Which melting point value is on record for COc1cccc(OC)c1/C=C/C(=O)c1cccc(Br)c1 ?
135.7 to 138.2 °C

Any idea what its melting point is? The molecule is COc1cccc(OC)c1/C=C/C(=O)c1ccc(C#N)cc1
144.3 to 145.9 °C

Please give the measured melting point for this molecule: COc1cccc(OC)c1/C=C/C(=O)c1ccc([N+](=O)[O-])cc1
147.3 to 148.6 °C

I have this molecule here, COc1ccc(C(=O)/C=C/c2c(OC)cccc2OC)c(O)c1 , and I need its recorded melting point.
143.5 to 144.7 °C

Further cases:
// returns reported melting point for input COc1cccc(OC)c1/C=C/C(=O)c1ccccc1
52.6 to 54.7 °C

Fill blank: measured melting point of the molecule COc1ccccc1C(=O)/C=C/c1c(OC)cccc1OC is ____.
109 to 111.4 °C

I am curious: what melting point value has been reported for COc1cccc(OC)c1/C=C/C(=O)c1ccc2c(c1)CCO2 ?
118.8 to 120.2 °C

What does the data say about its melting point? Entry: COc1ccc(C(=O)/C=C/c2ccc(Br)cc2Cl)cc1
145.3 to 146.4 °C

----------
Tested on: HepG2 cells
Experiment: In vitro anti-proliferative SRB assay, HepG2
Format: cell-based, human
Conditions: selectivity index, HMLE vs HepG2
Method: HepG2 and MCF7 cells were grown in the Eagle’s minimum essential medium with Earle’s balanced salts (MEM-EBSS) medium, HeLa, A549 and L02 cells were grown in Dulbecco’s Modified Eagle Media (DMEM), SW1990 cells were grown in RPMI-1640 medium, and HMLE cell were grown in DMEM/F-12 medium. […] Cells were seeded into 96-well plates (4000 cells/well) and incubated at 37 °C in a humidified 5% CO2 atmosphere. […] Cell viability was evaluated using the sulforhodamine B (SRB) assay as previous described.
ASSAY ENDPOINT: SI (CC50 HMLE/IC50 HepG2)
# print the numeric value only

# count of solved cases: 5
Record request: SI (CC50 HMLE/IC50 HepG2) value, item COc1cccc(OC)c1/C=C/C(=O)c1ccc(C)c(C)c1
0.6

Endpoint output: SI (CC50 HMLE/IC50 HepG2) of CCOc1ccc(C(=O)/C=C/c2c(OC)cccc2OC)cc1 . Value?
1.3

Look up SI (CC50 HMLE/IC50 HepG2): COc1cccc(OC)c1/C=C/C(=O)c1ccc(Cl)cc1Cl
1.7

Value lookup for SI (CC50 HMLE/IC50 HepG2); key = CCOc1cccc(C(=O)/C=C/c2c(OC)cccc2OC)c1
1.2

// query SI (CC50 HMLE/IC50 HepG2) value for entry COc1cccc(C(=O)/C=C/c2c(OC)cccc2OC)c1
1.2

Continuing:
What measured SI (CC50 HMLE/IC50 HepG2) goes with COc1cccc(OC)c1/C=C/C(=O)c1ccc(F)cc1 ?
0.5

Which SI (CC50 HMLE/IC50 HepG2) value belongs to COc1cccc(OC)c1/C=C/C(=O)c1cccc(OCc2ccccc2)c1 ?
1.3

# input compound: COc1cccc(OC)c1/C=C/C(=O)c1ccc(Cl)cc1 ; wanted: its SI (CC50 HMLE/IC50 HepG2)
0.7

// lookup SI (CC50 HMLE/IC50 HepG2) for COc1ccc(C(=O)/C=C/c2c(OC)cccc2OC)c(O)c1
0.8

Can you share its SI (CC50 HMLE/IC50 HepG2)? I mean this compound: COc1cccc(OC)c1/C=C/C(=O)c1ccc(-c2ccccc2)cc1
8.8

What does the record list as SI (CC50 HMLE/IC50 HepG2) for COc1cc(C(=O)/C=C/c2c(OC)cccc2OC)ccc1O ?
6.5

Entry COc1cccc(OC)c1/C=C/C(=O)c1ccccc1C has what SI (CC50 HMLE/IC50 HepG2)?
1.1

----------
Assay: Cytotoxicity (SRB) against non-tumoral L02 cells
Type: cell-based, human
Conditions: human, L02 cells (non-tumoral human liver cell line); increasing concentrations up to 100 μM; mean ± SD of at least three independent experiments; read-out: Normal Human Cell Lines, CC50, L02
CC50 at 48 h for assorted compounds
Return type: number; implicit unit µM.

Here's what some known entries look like.
So what's the measured CC50 at 48 h for this one? COc1cccc(OC)c1/C=C/C(=O)c1ccc(C)c(C)c1 [b5]
25.2

Given the compound COc1cccc(OC)c1/C=C/C(=O)c1cccc(Cl)c1 [b34] , what is its reported CC50 at 48 h?
46.9

More entries:
Which CC50 at 48 h is listed for COc1cccc(OC)c1/C=C/C(=O)c1cccc(O)c1 [b25] ?
19.6

----------
Tested on: MCF-7 cells
Test: In vitro anti-proliferative SRB assay, MCF-7
Assay type: cell-based, human
Conditions: selectivity index, HMLE vs MCF7
Yes means recorded SI (CC50 HMLE/IC50 MCF7) is 0.9 or above; No means it is below 0.9.

Is SI (CC50 HMLE/IC50 MCF7) at least 0.9? Consider COc1cccc(OC)c1/C=C/C(=O)c1cccc(N)c1
Yes

I'd appreciate it if you could say whether CCOc1cc(OC)ccc1C(=O)/C=C/c1c(OC)cccc1OC has SI (CC50 HMLE/IC50 MCF7) at least equal to 0.9.
Yes

Would you say COc1cccc(OC)c1/C=C/C(=O)c1ccc2c(c1)OCO2 shows SI (CC50 HMLE/IC50 MCF7) at minimum 0.9?
No

Evaluate COc1cccc(OC)c1/C=C/C(=O)c1ccc(Cl)cc1 : SI (CC50 HMLE/IC50 MCF7) at minimum 0.9?
No

# bool: SI (CC50 HMLE/IC50 MCF7) of COc1cccc(OC)c1/C=C/C(=O)c1cccc(OCc2ccccc2)c1 >= 0.9
Yes

---
Reported SI (CC50 HMLE/IC50 MCF7) at or above 0.9? COc1cc(C(=O)/C=C/c2c(OC)cccc2OC)ccc1O
Yes

SI (CC50 HMLE/IC50 MCF7) >= 0.9 for COc1cccc(OC)c1/C=C/C(=O)c1cccc(Br)c1 ?
No

----------
Tested on: HepG2 cells
Experiment: In vitro anti-proliferative SRB assay, HepG2
Format: cell-based, human
Settings: selectivity index, L02 vs HepG2
# Lookup of reported SI (CC50 L02/IC50 HepG2) keyed by entry
Form rule: numeric answer, no unit written next to it.

Entry CCOc1ccc(C(=O)/C=C/c2c(OC)cccc2OC)cc1OC has what SI (CC50 L02/IC50 HepG2)?
10.8

Look up SI (CC50 L02/IC50 HepG2) for this molecule: COc1cccc(OC)c1/C=C/C(=O)c1ccccc1
1.6

Dear colleague, I am looking for the recorded SI (CC50 L02/IC50 HepG2) of the following molecule: CCOc1cc(OC)ccc1C(=O)/C=C/c1c(OC)cccc1OC
0.9

Given the molecule COc1cccc(OC)c1/C=C/C(=O)c1ccc(C)cc1 , what is its reported SI (CC50 L02/IC50 HepG2)?
3.1

# get_value(readout='SI (CC50 L02/IC50 HepG2)', item= CCOc1ccc(C(=O)/C=C/c2c(OC)cccc2OC)cc1 )
3.4

***
Can you share its SI (CC50 L02/IC50 HepG2)? I mean this molecule: COc1cccc(OC)c1/C=C/C(=O)c1ccccc1C
2.5

Name the recorded SI (CC50 L02/IC50 HepG2) for COc1cccc(OC)c1/C=C/C(=O)c1ccc(O)cc1O .
2.0

Query: SI (CC50 L02/IC50 HepG2); subject: COc1cccc(OC)c1/C=C/C(=O)c1ccccc1O
3.1

May I ask what SI (CC50 L02/IC50 HepG2) has been recorded for COc1cccc(OC)c1/C=C/C(=O)c1ccc(Cl)cc1 ?
3.2

Returns the measured SI (CC50 L02/IC50 HepG2) for the input molecule. Input: CCOc1cccc(C(=O)/C=C/c2c(OC)cccc2OC)c1
2.3

Entry source: paper PMC6271338
